Target: human meprin β (Homo sapiens)
Construct: His-tag; made in house; host or cells: BTI-TN-5B1-4 insect cells (baculovirus, amplified in Sf9)
Sequence (Q16820 62-701): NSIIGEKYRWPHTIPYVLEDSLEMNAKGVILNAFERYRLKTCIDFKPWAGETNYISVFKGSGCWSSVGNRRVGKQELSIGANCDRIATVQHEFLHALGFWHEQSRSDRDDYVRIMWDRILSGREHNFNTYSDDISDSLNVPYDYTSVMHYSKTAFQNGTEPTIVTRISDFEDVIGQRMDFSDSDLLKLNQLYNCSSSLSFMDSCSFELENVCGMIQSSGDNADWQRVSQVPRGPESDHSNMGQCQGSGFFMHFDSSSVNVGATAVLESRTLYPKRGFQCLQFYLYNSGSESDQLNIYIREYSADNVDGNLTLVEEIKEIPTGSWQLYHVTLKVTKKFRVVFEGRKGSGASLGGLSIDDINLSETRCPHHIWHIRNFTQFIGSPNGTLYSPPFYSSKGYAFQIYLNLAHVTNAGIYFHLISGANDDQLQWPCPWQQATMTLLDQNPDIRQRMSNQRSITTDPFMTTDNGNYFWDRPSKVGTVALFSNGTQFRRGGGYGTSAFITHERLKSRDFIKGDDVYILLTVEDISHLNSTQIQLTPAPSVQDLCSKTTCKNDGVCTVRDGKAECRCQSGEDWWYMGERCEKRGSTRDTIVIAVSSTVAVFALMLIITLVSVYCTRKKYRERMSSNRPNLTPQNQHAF
Experiment: Meprin β assay in a 384-well plate (fluorogenic substrate Mca-EDEDED-K(Dnp))
Assay type: biochemical
Conditions: triplicate, ± SD
Experimental: Recombinant human meprin α and meprin β were expressed using the Bac-to-Bac expression system (Gibco Life Technologies, Paisley, UK) as described before. Media and supplements were obtained from Gibco Life Technologies. Recombinant Baculoviruses were amplified in adherently growing Spodoptera frugiperda (Sf)9 insect cells at 27 °C in Grace’s insect medium supplemented with 10% fetal bovine serum, 50 units/mL penicillin, and 50 μg/mL streptomycin. […]
pIC50: −log10 of the molar value.
Each entry below carries its reported pIC50.

// below: answered molecules
COc1cc(OC)nc(SCc2nnc(SCC(=O)NO)n2-c2ccc(C(F)(F)F)cc2)n1 [SR24003] :: < 4.00
COc1cc(OC)nc(SCc2nnc(SCC(=O)NO)n2-c2cccc3ccccc23)n1 [SR26467] :: < 4.00
COc1cc(OC)nc(SCc2nnc(SCC(=O)NO)n2-c2ccc(N3CCOCC3)cc2)n1 [SR26466] :: < 4.00
COc1ccc(-n2c(CSc3ncccn3)nnc2SCC(=O)NO)cc1 [SR19855] :: 4.77
COc1cc(OC)nc(SCc2nnc(SCC(=O)NO)n2-c2ccc(F)cc2)n1 [SR24463] :: < 4.00

// next item, pIC50 requested
**Query** Consider the molecule COc1cc(OC)nc(SCc2nnc(SCC(=O)NO)n2-c2ccccc2OC)n1 [SR24459] and give its recorded pIC50.
**Result** 4.28

---

Sequence of the target: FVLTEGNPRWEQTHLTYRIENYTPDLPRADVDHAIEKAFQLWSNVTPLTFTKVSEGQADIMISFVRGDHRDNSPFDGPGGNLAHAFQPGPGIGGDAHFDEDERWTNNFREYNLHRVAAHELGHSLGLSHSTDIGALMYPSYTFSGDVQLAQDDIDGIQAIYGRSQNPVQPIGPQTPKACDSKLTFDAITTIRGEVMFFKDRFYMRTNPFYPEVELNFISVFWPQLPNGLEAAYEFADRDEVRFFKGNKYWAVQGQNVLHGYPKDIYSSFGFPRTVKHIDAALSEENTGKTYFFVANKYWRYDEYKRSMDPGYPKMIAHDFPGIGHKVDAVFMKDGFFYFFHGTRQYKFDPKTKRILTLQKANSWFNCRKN
reportedEndpoint: pIC50
Reminder that pIC50 means the negative base-10 logarithm of the concentration expressed in mol/L.

**Query** Consider the compound CCCCC[C@H](CC(=O)NO)C(=O)N[C@H](C(=O)N1CCC[C@H]1CO)C(C)C [Actinonin, actinonin, reference compound] and give its recorded pIC50.
**Result** 7.00

---

Assay read-out IC50; system under study: MMP8 (Homo sapiens, UniProt P22894).
Sequence (P22894 101-467): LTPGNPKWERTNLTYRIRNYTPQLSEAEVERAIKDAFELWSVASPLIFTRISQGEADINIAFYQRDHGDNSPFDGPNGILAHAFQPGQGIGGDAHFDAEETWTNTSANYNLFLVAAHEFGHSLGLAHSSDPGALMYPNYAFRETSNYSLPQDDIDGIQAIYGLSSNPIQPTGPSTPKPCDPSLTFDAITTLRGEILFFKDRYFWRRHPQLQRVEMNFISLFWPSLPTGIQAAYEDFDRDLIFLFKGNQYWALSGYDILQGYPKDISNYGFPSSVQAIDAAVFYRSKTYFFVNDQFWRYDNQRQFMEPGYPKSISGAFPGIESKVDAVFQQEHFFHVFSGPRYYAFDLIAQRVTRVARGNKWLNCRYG

CCCCC[C@H](CC(=O)NO)C(=O)N[C@H](C(=O)N1CCC[C@H]1CO)C(C)C [Actinonin, actinonin, reference compound] :: 0.19 µM

**Query** Specify the recorded IC50 for COc1cc(OC)nc(SCc2nnc(SCC(=O)NO)n2-c2ccc(N(C)C)cc2)n1 , system: MMP8 (Homo sapiens, UniProt P22894).
**Result** > 100 µM

---

Target: MMP2 (Homo sapiens, UniProt P08253)
Construct: purchased R&D Systems 902-MP
Sequence (P08253 110-660): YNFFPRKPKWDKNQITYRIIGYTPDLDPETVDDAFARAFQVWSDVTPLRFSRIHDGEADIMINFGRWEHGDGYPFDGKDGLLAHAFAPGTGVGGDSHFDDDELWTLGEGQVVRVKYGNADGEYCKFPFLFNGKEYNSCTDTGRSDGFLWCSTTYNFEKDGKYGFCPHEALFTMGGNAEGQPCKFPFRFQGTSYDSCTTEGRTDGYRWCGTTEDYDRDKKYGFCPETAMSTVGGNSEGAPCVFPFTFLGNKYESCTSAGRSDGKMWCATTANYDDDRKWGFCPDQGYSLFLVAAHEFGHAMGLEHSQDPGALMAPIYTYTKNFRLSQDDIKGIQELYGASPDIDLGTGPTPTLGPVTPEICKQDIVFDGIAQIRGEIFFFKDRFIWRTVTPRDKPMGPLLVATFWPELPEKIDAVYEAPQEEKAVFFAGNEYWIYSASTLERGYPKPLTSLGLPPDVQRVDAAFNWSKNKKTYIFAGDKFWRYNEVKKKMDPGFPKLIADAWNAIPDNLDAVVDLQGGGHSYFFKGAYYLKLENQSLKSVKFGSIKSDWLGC
Test: MMP assay (fluorogenic substrate ES010)
Type: biochemical
reportedEndpoint: IC50 (nM)
Give the value, in units of nM, as a plain number.

**Query** Consider the compound CCCCC[C@H](CC(=O)NO)C(=O)N[C@H](C(=O)N1CCC[C@H]1CO)C(C)C [Actinonin, actinonin, reference compound] and give its recorded IC50.
**Result** 90
